The measured values listed here are drawn from PubChem BioAssay AID1159583.

test: hypoxia reporter signal reduction in M. tuberculosis – fluorescence, absorbance growth readout, primary screen (AID 1159583); settings: M. tuberculosis hypoxia-regulated fluorescent reporter, stronger effect = higher value, concentration not given here; measured here: M. tuberculosis growth (absorbance)
Screen size: about 300,000 compounds; about 310 (0.1%) were called active. This is one part of a sample in which actives are shown more often than they occur.
RECORDED METRIC: growth inhibition (%)

# COMPOUND, RECORDED METRIC, DATA VALUE
records = [
    ("COc1ccc2c(c1)C1C(CO2)C(c2ccccc2)[C@]2(C)C(=O)Nc3cc(F)c(F)cc3C(=O)N12 (stereo partly drawn)", "growth inhibition", 11.9),
    ("CC(=NNC(=O)c1csc(C)c1C)c1ccco1", "growth inhibition", 18.1),
    ("Cc1cc(C)cc(NC(=O)NC2CCCCCCC2)c1", "growth inhibition", 95.8),
    ("N#Cc1ccc(OCC(=O)NN=CC2CC=CCC2)cc1 (stereo not drawn)", "growth inhibition", 1.47),
    ("O=C(NN=Cc1ccccc1)C(O)c1ccccc1 (stereo not drawn)", "growth inhibition", -6.95),
    ("CCOC(=O)c1cc(C)sc1N=CC1C(=O)CC(C)(C)CC1=O", "growth inhibition", 4.24),
    ("CCCCN=C1NC(=Cc2ccco2)C(=O)N1c1ccccc1", "growth inhibition", 10.9),
    ("CC(=NNC(=O)c1cc(-c2ccc(Cl)s2)[nH]n1)c1ccco1", "growth inhibition", 4.98),
    ("CC(NCCN1CCOCC1)=C(C#N)C(N)=O", "growth inhibition", 4.01),
    ("CCOC(=O)C1=C(N)n2c(sc(=Cc3ccncc3)c2=O)=C(C(=O)OCC)C1c1ccncc1 (stereo not drawn)", "growth inhibition", -3.45),
    ("CN(C)c1ccc(C=NNC(=O)c2nonc2N)cc1[N+](=O)[O-]", "growth inhibition", -5.42),
    ("O=C1C2CC3C=CC2(O3)C2OCCCN12 (stereo not drawn)", "growth inhibition", 11.9),
    ("CCc1ccc(C=NNC(=O)c2ccccn2)cc1", "growth inhibition", 15.4),
    ("Cc1ccc(NCC(=O)NN=Cc2ccc([N+](=O)[O-])o2)cc1", "growth inhibition", 3.65),
    ("COc1ccc(C(N)=NOC(=O)c2cccc([N+](=O)[O-])c2)cc1", "growth inhibition", 7.49),
    ("CC(=NNC(=O)C(=O)Nc1ccc(C)c(Cl)c1)c1ccncc1", "growth inhibition", 2.87),
    ("CCOC(=O)C1=C(C)CC(=NNC(=O)c2ccccc2O)CC1", "growth inhibition", 25.6),
    ("COC(=O)[C@]1(Cc2ccccc2)NC(c2ccc(-c3cccc(Cl)c3)c(OC)c2)C2C(=O)N(C)C(=O)C21 (stereo partly drawn)", "growth inhibition", 8.95),
    ("Nc1nonc1C(=O)NN=Cc1ccc([N+](=O)[O-])o1", "growth inhibition", 31.3),
    ("CC(C)(C)NS(=O)(=O)c1ccc(NC(=O)NC2CCCCC2)cc1", "growth inhibition", 2.76),
    ("COc1ccc(-c2sc3ccccc3c2C=Cc2ccc(OC)c(OC)c2)cc1", "growth inhibition", 10),
    ("CCN(CC)CCOc1ccc2c(c1)C(=NNC(=O)c1ccccn1)c1cc(OCCN(CC)CC)ccc1-2", "growth inhibition", 20.2),
    ("O=C(CCCCCCCCC(=O)NN=Cc1ccco1)NN=Cc1ccco1", "growth inhibition", 5.53),
]

----------
assay: hypoxia reporter signal reduction in M. tuberculosis – fluorescence, absorbance growth readout, primary screen (AID 1159583); details: M. tuberculosis hypoxia-regulated fluorescent reporter, concentration not given here
The whole screen tested about 300,000 compounds, of which about 310 (0.1%) were called active. Cut-off read from the data, not from the text of the source: active = fluorescence inhibition mostly above about 23% (no sharp cut-off); inactive = mostly below about 17%. This is one part of a sample in which actives are shown more often than they occur.
Outcome codes: y for active, n for inactive

# COMPOUND, LABEL
measured = [
    ("Cc1nn(-c2ccccc2)c(Cl)c1C=NNC(=O)c1cccc(S(=O)(=O)N2CCCC2)c1", "n"),
    ("CC1CC2C3CCC4=CC(=O)C=C[C@]4(C)[C@@]3(F)C(O)C[C@]2(C)C1C(=O)CO (stereo partly drawn)", "n"),
    ("CC(=NNC(=S)Nc1ccccc1)c1ccc2c(c1)OCO2", "n"),
    ("[O-]C1=N[N+](=Cc2ccc(Cl)cc2)CC1", "n"),
    ("Oc1cccc(C=NNc2ncnc3c2ncn3Cc2ccccc2)c1", "n"),
    ("Cn1cc([N+](=O)[O-])c(C(=O)NN=Cc2ccc([N+](=O)[O-])cc2)n1", "n"),
    ("CCCCCC=CC1=CC(=O)CC(c2ccc(Cl)cc2)C1 (stereo not drawn)", "n"),
    ("COCCCNC(=S)NN=Cc1ccc(N(C)C)cc1", "n"),
    ("O=C(NN=Cc1ccccn1)c1cc(-c2ccccc2Cl)n[nH]1", "n"),
    ("COc1ccc(C=NN=C(N)c2nonc2N)cc1", "n"),
    ("CC(C)CCn1c(=O)c(C(=O)NN=Cc2cccc(F)c2)c(O)c2ccccc21", "n"),
    ("COc1ccc(C(=O)NN=C(c2ccccc2)c2ccccn2)cc1", "n"),
    ("CCOc1c2ccc(C(=O)NC(C)C3CCCCC3)cc2nn1CCOC (stereo not drawn)", "n"),
    ("COc1ccccc1C=NNC(=O)c1ccc2c(c1)OCO2", "n"),
    ("N#CC(=NNc1cccc(F)c1)C(=O)C1CC1", "n"),
    ("C=CCc1cccc(C=Nc2nc3ccccc3n2CC)c1O", "n"),
    ("O=C(NN=Cc1ccc2nccnc2c1)c1ccc(Br)cc1", "n"),
    ("CCCN(CCC)Cc1c(C(=O)NN=Cc2c[nH]c3ccccc23)nnn1-c1nonc1N", "n"),
    ("O=C(CCCC(=O)NN=Cc1ccccc1C(=O)O)NN=Cc1ccccc1C(=O)O", "n"),
    ("CCN(CC)CCOc1ccc2c(c1)C(=NNC(=O)c1ccccn1)c1cc(OCCN(CC)CC)ccc1-2", "y"),
    ("O=C(Cc1cc(=O)[nH][nH]1)NN=Cc1ccccc1Cl", "n"),
    ("O=C(CCCCCCCCC(=O)NN=Cc1ccco1)NN=Cc1ccco1", "n"),
    ("Cc1ccc(-c2c(C(=O)NN=Cc3ccc(C)o3)nnn2-c2nonc2N)cc1", "n"),
]

----------
The following compounds are listed with their measured fluorescence inhibition values.
assay: hypoxia reporter signal reduction in M. tuberculosis – fluorescence, absorbance growth readout, primary screen (AID 1159583); details: M. tuberculosis hypoxia-regulated fluorescent reporter, stronger effect = higher value, concentration not given here
Hit rate of the full screen: of about 300,000 compounds, about 310 (0.1%) were called active. This is one part of a sample in which actives are shown more often than they occur.

# COMPOUND, UNIT OF MEASUREMENT, fluorescence inhibition
data = [
    ("CC(C)(O)C1C2OC(=O)C1[C@]1(O)CC3O[C@]34C(=O)OC2[C@]14C (stereo not given in full) (tested in a mixture with another compound)", "%", -0.0447),
    ("CCC(=NNC(C)=O)c1ccc(OC(F)F)cc1", "%", 18.5),
    ("Cc1cc(C)nc(N=C(N)C2=C(O)CC(C)(C)CC2=O)n1", "%", 8.68),
    ("OCC1OC(O)C(O)C1O (stereo not given)", "%", 1.54),
    ("COc1ccc(C(=O)NN=Cc2ccc(OC(=O)c3cccc4ccccc34)c([N+](=O)[O-])c2)cc1", "%", 8.45),
]

----------
assay: hypoxia reporter signal reduction in M. tuberculosis – fluorescence, absorbance growth readout, primary screen (AID 1159583); conditions: M. tuberculosis hypoxia-regulated fluorescent reporter, stronger effect = higher value, concentration not given here; measured here: M. tuberculosis growth (absorbance)
In all, about 300,000 compounds went through this assay and about 310 (0.1%) were called active. For the sample, actives were picked, then their nearest neighbours and some compounds at random.
RECORDED METRIC: growth inhibition (%)

# INPUT SMILES, DATA VALUE
rows = [
    ("C=CCc1cccc(C=Nc2nc3ccccc3n2CC)c1O", 3.33),
    ("Cc1ccc(C=NNC(=O)CCCOc2ccc(Cl)cc2Cl)cc1[N+](=O)[O-]", 5.81),
    ("CC(=NNC(=S)Nc1ccccc1)c1ccc2c(c1)OCO2", -7.15),
    ("Cc1ccc(C(=O)ON=Cc2ccc3c(c2)OCO3)cc1", 12.4),
    ("O=C(NN=Cc1c[nH]c2ccccc12)c1cc2ccccc2o1", 8.76),
    ("O=[N+]([O-])c1ccc(Cl)cc1NN=Cc1ccncc1", -1.48),
    ("CC(=O)Nc1ccc(S(=O)(=O)NN=Cc2ccc(C)o2)cc1", -2.42),
]

----------
The following compounds are listed with their measured growth inhibition values.
test: hypoxia reporter signal reduction in M. tuberculosis – fluorescence, absorbance growth readout, primary screen (AID 1159583); details: M. tuberculosis hypoxia-regulated fluorescent reporter, stronger effect = higher value, concentration not given here; measured here: M. tuberculosis growth (absorbance)
In all, about 300,000 compounds went through this assay and about 310 (0.1%) were called active. Only a selection was taken, and actives are over-represented in it overall.
RECORDED METRIC: growth inhibition

# COMPOUND, RECORDED METRIC, DATA VALUE
measured = [
    ("Cc1sc2nc(C)n(N=Cc3ccc(O)cc3)c(=O)c2c1C", "growth inhibition", "1.4%"),
    ("COc1cccc(C=NNc2ncnc3c2ncn3Cc2ccccc2)c1O", "growth inhibition", "2.3%"),
    ("COC(=O)CSc1nc2ccccc2c(=O)n1Cc1ccccc1", "growth inhibition", "20.4%"),
    ("Cc1cc(C(=O)NN=Cc2cn[nH]c2-c2ccccc2)cs1", "growth inhibition", "-1.59%"),
    ("COC(=O)C1=C(C)N(Cc2ccccc2)C(=NCc2ccco2)NC1c1cccc(F)c1 (stereo unspecified)", "growth inhibition", "4.01%"),
    ("C=CCn1c(SCC(=O)NC(=O)Cc2ccccc2)nc2ccccc2c1=O", "growth inhibition", "56.9%"),
]
